The measurements presented in this section are drawn from patent US6706700B2.

Tested on: human androgen receptor
Experiment: androgenic activity rating (procedures described above; which test underlies the rating is not stated)
Conditions: compounds of the invention; rating scheme of Example 18
measurement-name: Res. (androgenic activity)

Example results:
| compound | Res. (androgenic activity) |
| --- | --- |
| C[C@@H]1CC2=C(CC[C@@H](O)C2)[C@H]2CC[C@]3(C)[C@H](CO)C[C@H]4C[C@]43[C@H]12 | Pro |
| CC[C@H](O)[C@@H]1C[C@H]2C[C@]23[C@H]2[C@H](CC[C@]13C)[C@H]1CCC(=O)C=C1C[C@H]2C | + |
| C[C@@H]1CC2=C(CC[C@H](O)C2)[C@H]2CC[C@]3(C)[C@H](CO)C[C@H]4C[C@]43[C@H]12 | pro |
| C[C@@H]1CC2=CC(=O)CC[C@@H]2[C@H]2CC[C@]3(C)[C@](F)(CO)C[C@H]4C[C@]43[C@@H]21 | ++ |
| CC(=O)OC[C@]1(F)C[C@H]2C[C@]23[C@@H]2[C@H](C)CC4=C(CCC(=O)C4)[C@H]2CC[C@]13C | + |

Sure, the documented Res. (androgenic activity) for C[C@@H]1CC2=C[C@@H](O)CC[C@@H]2[C@H]2CC[C@]3(C)[C@H](CO)C[C@H]4C[C@]43[C@@H]21 [Example 15a] is +++

Sure, the documented Res. (androgenic activity) for C[C@H]1[C@H]2C[C@]23[C@H]2[C@H](CC[C@]3(C)[C@@H]1CO)[C@H]1CCC(=O)C=C1C[C@H]2C is +

Sure, the documented Res. (androgenic activity) for C[C@@H]1CC2=CC(=O)CC[C@@H]2[C@H]2CC[C@]3(C)[C@H]([C@@H](C)O)C[C@H]4C[C@]43[C@@H]21 [Example 11b] is +

Sure, the documented Res. (androgenic activity) for C[C@@H]1CC2=C[C@H](O)CC[C@@H]2[C@H]2CC[C@]3(C)[C@](O)(CO)C[C@H]4C[C@]43[C@@H]21 is +

Sure, the documented Res. (androgenic activity) for C[C@H](O)[C@@H]1C[C@H]2C[C@]23[C@H]2[C@H](CC[C@]13C)[C@H]1CCC(=O)C=C1C[C@H]2C [Example 11a] is ++

====

Tested on: human androgen receptor
Experiment: androgenic activity rating (procedures described above; which test underlies the rating is not stated)
Parameters: key: −: no androgenic activity found; +: androgenic activity found; ++: high androgenic activity; +++: excellent androgenic activity; prodrug
Details: compounds of the invention; rating scheme of Example 18
From the text: Androgenic activity can be measured in various ways. Thus, the potency of androgens can be determined in vitro using the cytoplasmic androgen receptor from human breast tumor cells (MCF-7 cell line); see Bergink, E. W. et al, Comparison of the receptor binding properties of nandrolone and testosterone under in vitro and in vivo conditions, J. Steroid Biochem. 22, 831-836 (1985). […]
measurement-name: Res. (androgenic activity)

| line-notation | measurement-name | reported-result |
| --- | --- | --- |
| CC[C@]12CC[C@H]3[C@@H]([C@H](C)CC4=CC(=O)CC[C@@H]43)[C@]13C[C@@H]3C[C@H]2CO | Res. (androgenic activity) | +++ |
| C[C@@H]1CC2=C(CCC(=O)C2)[C@H]2CC[C@]3(C)[C@H](CO)C[C@H]4C[C@]43[C@H]12 | Res. (androgenic activity) | + |
| C[C@@H]1CC2=CC(=O)CCC2=C2CC[C@]3(C)[C@H](CO)C[C@H]4C[C@]43[C@@H]21 | Res. (androgenic activity) | ++ |
